TARGET OR SYSTEM: PTK2 (Homo sapiens, UniProt Q05397)
Construct: purchased Invitrogen PV3832
Sequence (Q05397 whole entry): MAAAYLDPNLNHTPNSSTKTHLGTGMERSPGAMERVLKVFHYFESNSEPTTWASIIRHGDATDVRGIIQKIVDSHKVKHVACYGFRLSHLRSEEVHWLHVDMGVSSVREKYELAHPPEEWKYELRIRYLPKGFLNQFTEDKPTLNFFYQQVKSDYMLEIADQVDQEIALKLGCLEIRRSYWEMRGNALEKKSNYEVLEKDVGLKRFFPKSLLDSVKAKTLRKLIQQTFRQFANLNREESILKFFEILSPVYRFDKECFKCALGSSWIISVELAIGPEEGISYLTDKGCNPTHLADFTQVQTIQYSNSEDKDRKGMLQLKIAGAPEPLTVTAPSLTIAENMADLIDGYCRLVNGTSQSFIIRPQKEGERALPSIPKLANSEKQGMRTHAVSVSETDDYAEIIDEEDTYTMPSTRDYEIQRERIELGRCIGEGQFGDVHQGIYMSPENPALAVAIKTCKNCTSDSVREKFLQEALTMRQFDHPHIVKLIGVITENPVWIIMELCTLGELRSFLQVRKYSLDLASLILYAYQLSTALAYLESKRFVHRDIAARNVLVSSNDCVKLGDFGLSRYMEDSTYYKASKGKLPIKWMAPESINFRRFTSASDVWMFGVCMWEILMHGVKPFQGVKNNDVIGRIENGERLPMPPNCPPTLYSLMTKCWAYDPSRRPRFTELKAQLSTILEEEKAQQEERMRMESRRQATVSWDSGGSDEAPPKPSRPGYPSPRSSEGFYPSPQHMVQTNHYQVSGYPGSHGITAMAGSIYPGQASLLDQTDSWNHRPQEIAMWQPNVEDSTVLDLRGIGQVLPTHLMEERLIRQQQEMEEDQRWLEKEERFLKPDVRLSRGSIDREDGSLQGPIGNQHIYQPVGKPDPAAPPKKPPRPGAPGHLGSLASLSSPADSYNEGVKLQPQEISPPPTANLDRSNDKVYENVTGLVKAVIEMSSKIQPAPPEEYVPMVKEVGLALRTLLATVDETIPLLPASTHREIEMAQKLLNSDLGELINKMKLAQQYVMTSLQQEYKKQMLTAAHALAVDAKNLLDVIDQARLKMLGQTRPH
ASSAY METHOD TEXT: PTK2 enzyme test, Assay 1 (DELFIA, PT60 antibody)
Type: biochemical
CONDITION SUMMARY: 1 h pre-incubation, 1 h kinase reaction, values without *
pIC50: −log10 of the molar value.
pIC50 below 9 gives Criterion not met; pIC50 at or above it gives Criterion met.

{"COMPOUND": "COc1cc(C(=O)NC[C@@H](O)CO)c(F)cc1Nc1ncc(Cl)c(O[C@@H]2Cc3ccccc3[C@H]2N(C)S(C)(=O)=O)n1 [Example 51]", "QUALITATIVE LABEL": "Criterion not met"}
{"COMPOUND": "COc1cc(NC(=O)C2CCN(C)CC2)ccc1Nc1ncc(C(F)(F)F)c(O[C@@H]2Cc3ccccc3[C@H]2N(C)S(C)(=O)=O)n1 [Example 91]", "QUALITATIVE LABEL": "Criterion not met"}
{"COMPOUND": "COc1cc(C(=O)NCCn2ccnc2C)c(Cl)cc1Nc1ncc(Cl)c(O[C@@H]2Cc3ccccc3[C@H]2N(C)S(C)(=O)=O)n1 [Example 35]", "QUALITATIVE LABEL": "Criterion not met"}
{"COMPOUND": "COc1cc(C(=O)NC2CCN(C)CC2)c(Cl)cc1Nc1ncc(Cl)c(O[C@@H]2CCC[C@H]2N(C)S(C)(=O)=O)n1 [Example 84]", "QUALITATIVE LABEL": "Criterion met"}
{"COMPOUND": "COc1cc(C(=O)NCCCN(C)C)ccc1Nc1ncc(C(F)(F)F)c(O[C@@H]2Cc3ccccc3[C@H]2N(C)S(C)(=O)=O)n1 [Example 20]", "QUALITATIVE LABEL": "Criterion not met"}
{"COMPOUND": "COc1cc(C(=O)NC2CCN(C)CC2)c(F)cc1Nc1ncc(Cl)c(O[C@@H]2CCC[C@H]2N(C)S(C)(=O)=O)n1 [Example 85]", "QUALITATIVE LABEL": "Criterion met"}

###

TARGET OR SYSTEM: PTK2 (Homo sapiens, UniProt Q05397)
Construct: purchased Invitrogen PV3832
ASSAY METHOD TEXT: PTK2 enzyme test, Assay 1 (DELFIA, PT60 antibody)
Format: biochemical
CONDITION SUMMARY: 1 h pre-incubation, 1 h kinase reaction, values without *
pIC50: −log10 of the molar value.

{"SMILES CODE": "COc1cc(C(=O)NC[C@H](O)CO)c(F)cc1Nc1ncc(Cl)c(O[C@@H]2Cc3ccccc3[C@H]2N(C)S(C)(=O)=O)n1", "pIC50": 8.05}
{"SMILES CODE": "COc1cc(C(=O)NC2CCN(C)CC2)c(Cl)cc1Nc1ncc(Cl)c(O[C@@H]2Cc3ccccc3[C@H]2N(C)S(C)(=O)=O)n1", "pIC50": 8.52}
{"SMILES CODE": "COc1cc(C(=O)NN2CCN(C)CC2)ccc1Nc1ncc(C(F)(F)F)c(O[C@@H]2CCC[C@H]2N(C)S(C)(=O)=O)n1", "pIC50": 9.48}
{"SMILES CODE": "COc1cc(C(=O)NCCN(C)C)c(F)cc1Nc1ncc(C(F)(F)F)c(O[C@@H]2CCC[C@H]2NS(C)(=O)=O)n1", "pIC50": 9.43}
{"SMILES CODE": "COc1cc(C(=O)NCCN2CCN(C)CC2)c(F)cc1Nc1ncc(C(F)(F)F)c(O[C@@H]2Cc3ccccc3[C@H]2N(C)S(C)(=O)=O)n1", "pIC50": 8.40}
{"SMILES CODE": "COc1cc(C(=O)NN2CCN(C)CC2)c(Cl)cc1Nc1ncc(C(F)(F)F)c(O[C@@H]2CCC[C@H]2N(C)S(C)(=O)=O)n1", "pIC50": 9.59}
